Source: ChEMBL document CHEMBL1126102

Target: Adenosine receptor A1 (Cavia porcellus, UniProt P47745)
Sequence (P47745 whole entry): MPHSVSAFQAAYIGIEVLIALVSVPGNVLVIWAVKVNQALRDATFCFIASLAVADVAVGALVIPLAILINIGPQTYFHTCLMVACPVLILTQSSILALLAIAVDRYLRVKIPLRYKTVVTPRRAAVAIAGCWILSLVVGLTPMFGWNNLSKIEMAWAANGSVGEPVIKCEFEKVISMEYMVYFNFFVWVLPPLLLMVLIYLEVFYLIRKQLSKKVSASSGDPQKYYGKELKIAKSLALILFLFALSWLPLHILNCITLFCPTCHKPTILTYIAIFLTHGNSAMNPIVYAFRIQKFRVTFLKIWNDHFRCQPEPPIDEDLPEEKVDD
Assay: Tested for adenosine A1 receptor agonistic activity by determining concentration needed to prolong the stimulus-QRS interval by 50% of the maximum response
Assay type: functional
measurement.label: EC50 (µM)

Known EC50 results, listed for orientation:
Would you kindly share the measured EC50 for Cc1cccc(/C=N/Nc2nc(N)c3ncn(C4O[C@H](CO)[C@@H](O)[C@H]4O)c3n2)c1 (stereo not given in full) ?
17

Could you do the same for Nc1nc(N/N=C/c2ccccc2Cl)nc2c1ncn2C1O[C@H](CO)[C@@H](O)[C@H]1O (stereo not given in full) , please?
49

(a) Nc1nc(N/N=C/c2cc(Br)cs2)nc2c1ncn2C1O[C@H](CO)[C@@H](O)[C@H]1O (stereo not given in full)
(b) Nc1nc(N/N=C/c2ccncc2)nc2c1ncn2C1O[C@H](CO)[C@@H](O)[C@H]1O (stereo not given in full)
Sort a and b by EC50 descending and give the first. # answer = label of selected item
a
(a: 57.5 µM, b: 26.3 µM)

(a) Nc1nc(N/N=C/c2cccc(F)c2)nc2c1ncn2C1O[C@H](CO)[C@@H](O)[C@H]1O (stereo not given in full)
(b) Nc1nc(NCCc2ccc(CCC(=O)O)cc2)nc2c1ncn2C1O[C@H](CO)[C@@H](O)[C@H]1O (stereo not given in full)
(c) Cc1ccccc1/C=N/Nc1nc(N)c2ncn(C3O[C@H](CO)[C@@H](O)[C@H]3O)c2n1 (stereo not given in full)
Hey, quick one: sort these by EC50, low to high? # list labels per requested ordering
a, c, b
(a: 9.12 µM, c: 43.7 µM, b: 112 µM)

###

biological target: Adenosine A2 receptor; experiment: Tested for adenosine A2 receptor agonistic activity by determining coronary vasodilation; assay type: functional, Cavia porcellus
measurement.label: -Log EC50

Lab note: need -Log EC50 for CC(C)(C)OC(=O)CCc1ccc(/C=N/Nc2nc(N)c3ncn(C4O[C@H](CO)[C@@H](O)[C@H]4O)c3n2)cc1 (some centres not stated) on Adenosine A2 receptor, anyone have it?
8.52

Could you do the same for Nc1nc(N/N=C/c2cccc(F)c2)nc2c1ncn2C1O[C@H](CO)[C@@H](O)[C@H]1O (some centres not stated) , please?
8.47

Could you do the same for Nc1nc(N/N=C/c2cccc3ccccc23)nc2c1ncn2C1O[C@H](CO)[C@@H](O)[C@H]1O (some centres not stated) , please?
8.02

Could you do the same for Nc1nc(N/N=C/c2cccs2)nc2c1ncn2C1O[C@H](CO)[C@@H](O)[C@H]1O (some centres not stated) , please?
7.86

Could you do the same for Nc1nc(N/N=C/c2cccnc2)nc2c1ncn2C1O[C@H](CO)[C@@H](O)[C@H]1O (some centres not stated) , please?
7.83

Could you do the same for Nc1nc(N/N=C/c2ccncc2)nc2c1ncn2C1O[C@H](CO)[C@@H](O)[C@H]1O (some centres not stated) , please?
7.96

Could you do the same for Nc1nc(N/N=C/c2ccccc2F)nc2c1ncn2C1O[C@H](CO)[C@@H](O)[C@H]1O (some centres not stated) , please?
8.43

Could you do the same for Nc1nc(N/N=C/c2ccc(CCC(=O)O)cc2)nc2c1ncn2C1O[C@H](CO)[C@@H](O)[C@H]1O (some centres not stated) , please?
8.18

Could you do the same for Nc1nc(N/N=C/Cc2ccccc2)nc2c1ncn2C1O[C@H](CO)[C@@H](O)[C@H]1O (some centres not stated) , please?
8.04

Could you do the same for C/C(=N\Nc1nc(N)c2ncn(C3O[C@H](CO)[C@@H](O)[C@H]3O)c2n1)c1cccs1 (some centres not stated) , please?
7.55

Could you do the same for Cc1cccc(/C=N/Nc2nc(N)c3ncn(C4O[C@H](CO)[C@@H](O)[C@H]4O)c3n2)c1 (some centres not stated) , please?
8.36

Could you do the same for Nc1nc(N/N=C/c2ccccn2)nc2c1ncn2C1O[C@H](CO)[C@@H](O)[C@H]1O (some centres not stated) , please?
8.24

Could you do the same for Nc1nc(N/N=C/c2ccccc2)nc2c1ncn2C1O[C@H](CO)[C@@H](O)[C@H]1O (some centres not stated) , please?
8.64

Could you do the same for Nc1nc(N/N=C/c2ccccc2Cl)nc2c1ncn2C1O[C@H](CO)[C@@H](O)[C@H]1O (some centres not stated) , please?
8.12

Could you do the same for COc1cccc(/C=N/Nc2nc(N)c3ncn(C4O[C@H](CO)[C@@H](O)[C@H]4O)c3n2)c1 (some centres not stated) , please?
7.91

Could you do the same for Cc1ccccc1/C=N/Nc1nc(N)c2ncn(C3O[C@H](CO)[C@@H](O)[C@H]3O)c2n1 (some centres not stated) , please?
7.92

Could you do the same for Nc1nc(N/N=C/c2cccc(Cl)c2)nc2c1ncn2C1O[C@H](CO)[C@@H](O)[C@H]1O (some centres not stated) , please?
8.34

Could you do the same for C/C(=N\Nc1nc(N)c2ncn(C3O[C@H](CO)[C@@H](O)[C@H]3O)c2n1)c1ccccc1 (some centres not stated) , please?
7.9

Could you do the same for Nc1nc(N/N=C/c2ccc(F)cc2)nc2c1ncn2C1O[C@H](CO)[C@@H](O)[C@H]1O (some centres not stated) , please?
8.61

Could you do the same for Nc1nc(NCCc2ccc(CCC(=O)O)cc2)nc2c1ncn2C1O[C@H](CO)[C@@H](O)[C@H]1O (some centres not stated) , please?
7.95

Could you do the same for COc1ccccc1/C=N/Nc1nc(N)c2ncn(C3O[C@H](CO)[C@@H](O)[C@H]3O)c2n1 (some centres not stated) , please?
6.86

Could you do the same for Nc1nc(N/N=C/c2ccc3ccccc3c2)nc2c1ncn2C1O[C@H](CO)[C@@H](O)[C@H]1O (some centres not stated) , please?
8.38

Could you do the same for NNc1nc(N)c2ncn(C3O[C@H](CO)[C@@H](O)[C@H]3O)c2n1 (some centres not stated) , please?
7.1

Could you do the same for Nc1nc(N/N=C/c2ccsc2)nc2c1ncn2C1O[C@H](CO)[C@@H](O)[C@H]1O (some centres not stated) , please?
7.81

Could you do the same for Nc1nc(N/N=C/c2cc(Br)cs2)nc2c1ncn2C1O[C@H](CO)[C@@H](O)[C@H]1O (some centres not stated) , please?
8.28

Could you do the same for CC(C)(C)OC(=O)CCc1ccc(CCNc2nc(N)c3ncn(C4O[C@H](CO)[C@@H](O)[C@H]4O)c3n2)cc1 (some centres not stated) , please?
8.28

Could you do the same for C/C(=N\Nc1nc(N)c2ncn(C3O[C@H](CO)[C@@H](O)[C@H]3O)c2n1)c1ccc(F)cc1 (some centres not stated) , please?
8.49

###

molecular target: Adenosine receptor A1 (Cavia porcellus, UniProt P47745); assay: Tested for adenosine A1 receptor agonistic activity by determining concentration needed to prolong the stimulus-QRS interval by 50% of the maximum response
pEC50: −log10 of the molar value.
measurement.label: pEC50

Known pEC50 results, listed for orientation:
Would you kindly share the measured pEC50 for COc1cccc(/C=N/Nc2nc(N)c3ncn(C4O[C@H](CO)[C@@H](O)[C@H]4O)c3n2)c1 (stereo not given in full) ?
4.71

Could you do the same for Nc1nc(N/N=C/c2cccc3ccccc23)nc2c1ncn2C1O[C@H](CO)[C@@H](O)[C@H]1O (stereo not given in full) , please?
6.08

Could you do the same for Cc1ccc(/C=N/Nc2nc(N)c3ncn(C4O[C@H](CO)[C@@H](O)[C@H]4O)c3n2)cc1 (stereo not given in full) , please?
4.40

(a) Nc1nc(N/N=C/c2cccnc2)nc2c1ncn2C1O[C@H](CO)[C@@H](O)[C@H]1O (stereo not given in full)
(b) COc1ccccc1/C=N/Nc1nc(N)c2ncn(C3O[C@H](CO)[C@@H](O)[C@H]3O)c2n1 (stereo not given in full)
Of a and b , which carries the smaller reported pEC50 figure? # answer = label of selected item
a

###

Target: Adenosine receptor A1 (Cavia porcellus)
Sequence (P47745 whole entry): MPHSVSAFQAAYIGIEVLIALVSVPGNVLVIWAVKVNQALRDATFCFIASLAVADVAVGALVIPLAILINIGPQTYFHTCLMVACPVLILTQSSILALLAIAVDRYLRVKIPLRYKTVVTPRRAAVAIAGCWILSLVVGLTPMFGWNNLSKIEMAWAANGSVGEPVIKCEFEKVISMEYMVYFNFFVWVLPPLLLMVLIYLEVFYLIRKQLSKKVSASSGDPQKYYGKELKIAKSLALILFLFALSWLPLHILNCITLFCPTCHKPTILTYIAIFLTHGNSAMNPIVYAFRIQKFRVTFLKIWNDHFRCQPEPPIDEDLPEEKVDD
Test: Tested for adenosine A1 receptor agonistic activity by determining concentration needed to prolong the stimulus-QRS interval by 50% of the maximum response
pEC50: −log10 of the molar value.
measurement.label: pEC50

(P) CC(C)(C)OC(=O)CCc1ccc(/C=N/Nc2nc(N)c3ncn(C4O[C@H](CO)[C@@H](O)[C@H]4O)c3n2)cc1 (stereo partly drawn)
(Q) Nc1nc(N/N=C/CCc2ccccc2)nc2c1ncn2C1O[C@H](CO)[C@@H](O)[C@H]1O (stereo partly drawn)
Sort P and Q by pEC50 descending and give the first. # answer = label of selected item
P
